system: SK-MEL-28
// NB: equality with 60 µM counts as not satisfied; only CC50 strictly below is satisfied

{"compound": "C=C1C(=O)O[C@H]2[C@H]1CC/C(COC(=O)NCCO)=C\\CC[C@@]1(C)O[C@@H]21 [JVM 2-50]", "qualitative label": "not satisfied"}
{"compound": "C=C1C(=O)O[C@H]2[C@H]1CC/C(COC(=O)NCCN1CCCCC1)=C\\CC[C@@]1(C)O[C@@H]21 [JVM 2-13]", "qualitative label": "satisfied"}
{"compound": "C=C1C(=O)O[C@H]2[C@H]1CC/C(COC(=O)CCC(=O)N1CCC(C)CC1)=C\\CC[C@@]1(C)O[C@@H]21 [JVM 2-70]", "qualitative label": "satisfied"}
{"compound": "C=C1C(=O)O[C@H]2[C@H]1CC/C(COC(=O)N1CCN(C)CC1)=C\\CC[C@@]1(C)O[C@@H]21 [JVM 2-44]", "qualitative label": "satisfied"}
{"compound": "C=C1C(=O)O[C@H]2[C@H]1CC/C(COC(=O)N1CCC(F)(F)CC1)=C\\CC[C@@]1(C)O[C@@H]21 [JVM 2-66]", "qualitative label": "satisfied"}
{"compound": "C=C1C(=O)O[C@H]2[C@H]1CC/C(COC(=O)NC)=C\\CC[C@@]1(C)O[C@@H]21 [JVM 2-57]", "qualitative label": "satisfied"}
